- system-under-test: α1-adrenoceptors
- assay-summary: inhibition of 7-methoxy-[3H]prazosin binding to α1-adrenoceptors in vitro
- Set-up: species or system rat (male Charles River CD, whole cortical tissue)
- run-parameters: rat whole cortex, 7-methoxy-[3H]prazosin 0.1 nM, 30° C., 30 min; hydrochloride
Where a name gives a salt, the structure may show the parent alone.
experimental-endpoint: pKi
Field pKi (float): negative decimal logarithm of the concentration in molar.

// molecule Cn1nc(C2CC2)c(CN2CCN(c3cccc4c3OCCO4)CC2)c1N [Example 18, hydrochloride] , assay α1-adrenoceptors, pKi value: 6.69

---

Can you tell me Ki for the items I'm about to list?
- system-under-test: α1-adrenoceptors
- assay-summary: inhibition of 7-methoxy-[3H]prazosin binding to α1-adrenoceptors in vitro
- Parameters: species or system rat (male Charles River CD, whole cortical tissue)
- run-parameters: rat whole cortex, 7-methoxy-[3H]prazosin 0.1 nM, 30° C., 30 min
Give the value in nM but do not write nM after it.

Recorded result, Nc1c(CN2CCN(c3cccc4ccoc34)CC2)c(C2CC2)nn1-c1ccccc1 , Ki: 7.1

Recorded result, Nc1c(CN2CCN(c3cccc4c3OCCO4)CC2)c(C2CCC2)nn1-c1ccccc1 , Ki: 50

Recorded result, Nc1c(CN2CCN(c3cccc4c3OCCO4)CC2)c(C2CC2)nn1-c1ccncc1 , Ki: 102

Recorded result, CC1(CN2CCN(c3cccc4c3OCCO4)CC2)N=C(c2ccccc2)NC1=O (stereo not drawn) , Ki: 473

Recorded result, Cn1nc(C2CCC2)c(CN2CCN(c3cccc4c3OCCO4)CC2)c1N , Ki: 64

Recorded result, C=CCn1c(-c2ccccn2)nn(CN2CCN(c3ccccc3OC)CC2)c1=S , Ki: 301

Recorded result, C=CCn1c(-c2cccs2)nn(CN2CCN(c3ccccc3OC)CC2)c1=S , Ki: 159

Recorded result, Nc1c(CN2CCN(c3cccc4c3OCCO4)CC2)c(C2CC2)nn1Cc1ccccc1 , Ki: 9.9

Recorded result, CC(C)Oc1ccccc1N1CCN(Cc2c(C3CCC3)nn(C)c2N)CC1 , Ki: 27

Recorded result, COc1ccc(-n2nc(C3CC3)c(CN3CCN(c4cccc5c4OCCO5)CC3)c2N)cc1 , Ki: 27

Recorded result, C=CCn1c(-c2cccnc2)nn(CCCCN2CCN(c3ccccc3OC)CC2)c1=O , Ki: 16

Recorded result, Cn1c(N)c(CN2CCN(c3cccc4ccccc34)CC2)c(=O)n1-c1ccccc1 , Ki: 186

Recorded result, Nc1c(CN2CCN(c3cccc4c3OCCO4)CC2)c(-c2ccccc2)nn1-c1ccccc1 , Ki: 41

Recorded result, C=CCn1c(C)nn(CN2CCN(c3ccccc3OC)CC2)c1=S , Ki: 497

Recorded result, CCCn1c(N)c(CN2CCN(c3cccc4c3OCCO4)CC2)c(=O)n1-c1ccccc1 , Ki: 41
